# ASSAY_METHOD_TEXT: Toxicity liver stage against HepG2, at 10uM
# Format: cell-based
# Set-up: test concentration 10 uM, cell line HepG2-A16-CD81EGFP
# TEST_CONDITIONS: human, HepG2-A16-CD81EGFP cells; read-out: INHIBITION
Kindly supply the reported cytotoxicity at 10 µM values for the records listed here.
A number alone suffices; assume %.

# get_value(readout='cytotoxicity at 10 µM', item= CC(C)N1CC[C@@](C)(O)[C@H](n2ccc(=O)[nH]c2=O)C1 ) 6.61

# get_value(readout='cytotoxicity at 10 µM', item= CCC(C)N(Cc1ccsc1)C(=O)c1ccc(CO)cc1 (configuration not stated) ) 4.26

# get_value(readout='cytotoxicity at 10 µM', item= Clc1ccccc1-c1nnc(CN2CCCC2Cn2cncn2)o1 (configuration not stated) ) -9.03

# get_value(readout='cytotoxicity at 10 µM', item= CC(C)N1C(=O)CC(N2CCN(c3ccc(F)cc3)CC2)C1=O (configuration not stated) ) 8.44

# get_value(readout='cytotoxicity at 10 µM', item= Cc1ccc(N2C[C@@H]3OCCN(Cc4c(C)noc4C)[C@@H]3C2)nn1 ) -1.62

# get_value(readout='cytotoxicity at 10 µM', item= CCc1nnc2n1CCN(CC(=O)Nc1cc(C(C)(C)C)nn1C)C2 ) -5.77

# get_value(readout='cytotoxicity at 10 µM', item= Fc1cccc(Cl)c1CNCCOc1ccccn1 ) -11.4

# get_value(readout='cytotoxicity at 10 µM', item= O=C(c1ccccc1)N1Cc2nccn2CC(Cn2ncccc2=O)C1 (configuration not stated) ) 10.4

# get_value(readout='cytotoxicity at 10 µM', item= O=C(NCCCN1CCOCC1)c1ccnc(OCc2ccccc2)c1 ) -21.4

# get_value(readout='cytotoxicity at 10 µM', item= Cc1cn2nc(N3CCCN(Cc4noc(C)n4)CC3)sc2n1 ) 0.529

# get_value(readout='cytotoxicity at 10 µM', item= O=C(COCc1ccccc1Cl)N1CCN(c2cnccn2)CC1 ) 7.57

# get_value(readout='cytotoxicity at 10 µM', item= CCN(C(=O)CN1CCCC1c1ccc(F)cc1)c1ccccc1C (configuration not stated) ) 5.42

# get_value(readout='cytotoxicity at 10 µM', item= CCOc1ccc(Cl)cc1C(C(=O)O)N1CCCC1 (configuration not stated) ) 0.95

# get_value(readout='cytotoxicity at 10 µM', item= CC(=O)N1CC[C@@H]2O[C@H](C(=O)Nc3nc(C)cs3)C[C@@H]21 ) 4.62

# get_value(readout='cytotoxicity at 10 µM', item= O=S(=O)(c1ccc(F)cc1)n1cc(Cl)cn1 ) 0.0667

# get_value(readout='cytotoxicity at 10 µM', item= CC(CCc1ccc(F)c(F)c1)NS(=O)(=O)Cc1ccon1 (configuration not stated) ) -7.97

# get_value(readout='cytotoxicity at 10 µM', item= CCCc1cc(N2CCCC2Cn2nc(C)cc2C)n2ncnc2n1 (configuration not stated) ) 2.48

# get_value(readout='cytotoxicity at 10 µM', item= Cc1cc(C(=O)NCC(O)c2c(Cl)cccc2Cl)nn1C (configuration not stated) ) -9.38

# get_value(readout='cytotoxicity at 10 µM', item= COCCN1CCN(C(=O)c2ccc(C)cc2OC)[C@H]2CS(=O)(=O)C[C@H]21 ) -3.81

# get_value(readout='cytotoxicity at 10 µM', item= CCOc1ccccc1OC1CCN(C(=O)c2cnsn2)CC1 ) 0.32

# get_value(readout='cytotoxicity at 10 µM', item= O=C(c1cn(-c2cc(N3CCSCC3)ncn2)cn1)N1CCOCC1 ) 14.9

# get_value(readout='cytotoxicity at 10 µM', item= CN(C)Cc1cc(-c2nccn2CCc2cccnc2)ccc1O ) -42.9

# get_value(readout='cytotoxicity at 10 µM', item= Cc1cccc(CN2CCC3(CCCN(C(=O)NC(C)C)C3)C2=O)n1 (configuration not stated) ) 7.51

# get_value(readout='cytotoxicity at 10 µM', item= Cc1cccc(C2CCCCCN2Cc2cn(C)nc2C)c1 (configuration not stated) ) -1.17

# get_value(readout='cytotoxicity at 10 µM', item= CCn1ccnc1CN1CCCC1C(=O)Nc1nccs1 (configuration not stated) ) -6.7

# get_value(readout='cytotoxicity at 10 µM', item= Cc1cc(C)c2c(NCc3nncn3C3CCCCC3)ncnc2n1 ) -0.404

# get_value(readout='cytotoxicity at 10 µM', item= CNc1nc(C(=O)N2C[C@@H]3CC[C@H]2CN(C2CCOCC2)C3)cs1 ) 4.84

# get_value(readout='cytotoxicity at 10 µM', item= CC(=O)N1CCN(C(=O)NCc2csc(Br)c2)CC1 ) -6.31

# get_value(readout='cytotoxicity at 10 µM', item= Cc1ncc(CNC2CC(=O)N(CCc3ccc(F)cc3)C2)n1C (configuration not stated) ) -0.309

# get_value(readout='cytotoxicity at 10 µM', item= Cc1nnc(N2CCOC(C)(C(=O)NC3CCCC3)C2)c2ccccc12 (configuration not stated) ) 7.92

# get_value(readout='cytotoxicity at 10 µM', item= CS(=O)(=O)c1ccccc1C(=O)NCC1Cc2ccccc2O1 (configuration not stated) ) -9.6

# get_value(readout='cytotoxicity at 10 µM', item= Cc1nc(CN2CCCC2Cn2ccnc2C(C)C)nc2ccccc12 (configuration not stated) ) -56.8

# get_value(readout='cytotoxicity at 10 µM', item= Cc1cc(COC(=O)[C@@H]2Cc3ccccc3CN2S(C)(=O)=O)no1 ) -9.87

# get_value(readout='cytotoxicity at 10 µM', item= CN(Cc1ccsc1)C(=O)CN1CCOC(Cn2cccn2)C1 (configuration not stated) ) -14.7

# get_value(readout='cytotoxicity at 10 µM', item= O=C(NCC1CCOCC1)[C@H]1C[C@@H]2CCN(Cc3ccncc3)C[C@@H]2O1 ) -14.1

# get_value(readout='cytotoxicity at 10 µM', item= COc1ccnc(N2CCN(C(=O)Cc3csc(C)n3)CC2)n1 ) -15.6

# get_value(readout='cytotoxicity at 10 µM', item= CC(O)(CNC(=O)NCCc1ccc2c(c1)CCO2)c1ccccc1 (configuration not stated) ) 6.36

# get_value(readout='cytotoxicity at 10 µM', item= CC(Cn1cccn1)NC(=O)N(C)Cc1ccc(C(N)=O)cc1 (configuration not stated) ) 3.37

# get_value(readout='cytotoxicity at 10 µM', item= CC(O)CN1CCN(C(=O)Cc2ccccc2Cl)CC1 (configuration not stated) ) -9.6

# get_value(readout='cytotoxicity at 10 µM', item= O=C(C1CCOC1)N1CCc2ncnc(-c3cccnc3)c2CC1 (configuration not stated) ) -3.13

# get_value(readout='cytotoxicity at 10 µM', item= CC(=O)NCC(=O)N1CCc2c(CNc3ncccn3)cncc2C1 ) 1.59

# get_value(readout='cytotoxicity at 10 µM', item= Cc1c(C)n(Cc2ccccn2)c2nc3c(c(N)c12)CCCC3 ) 8.37

# get_value(readout='cytotoxicity at 10 µM', item= Cc1cc(C)c2ncn(CCC(C)O)c(=O)c2c1 (configuration not stated) ) 2.1

# get_value(readout='cytotoxicity at 10 µM', item= O=C(CN1CCC(c2ccnn2CCO)CC1)NC1CCCC1 ) -6.64

# get_value(readout='cytotoxicity at 10 µM', item= CCOc1cc(CN(C)CCOC)ccc1OC(F)F ) -13.7

# get_value(readout='cytotoxicity at 10 µM', item= CC(=O)N1CCN(c2ccccc2CNc2ccc(C)cn2)CC1 ) 11.2

# get_value(readout='cytotoxicity at 10 µM', item= CCCN(CC)C(=O)c1ncn2c1CN(C)S(=O)(=O)c1ccccc1-2 ) -152
